# system: SOS1 catalytic domain (residues 564-1049) (Homo sapiens, UniProt Q07889)
# Sequence (Q07889 564-1049): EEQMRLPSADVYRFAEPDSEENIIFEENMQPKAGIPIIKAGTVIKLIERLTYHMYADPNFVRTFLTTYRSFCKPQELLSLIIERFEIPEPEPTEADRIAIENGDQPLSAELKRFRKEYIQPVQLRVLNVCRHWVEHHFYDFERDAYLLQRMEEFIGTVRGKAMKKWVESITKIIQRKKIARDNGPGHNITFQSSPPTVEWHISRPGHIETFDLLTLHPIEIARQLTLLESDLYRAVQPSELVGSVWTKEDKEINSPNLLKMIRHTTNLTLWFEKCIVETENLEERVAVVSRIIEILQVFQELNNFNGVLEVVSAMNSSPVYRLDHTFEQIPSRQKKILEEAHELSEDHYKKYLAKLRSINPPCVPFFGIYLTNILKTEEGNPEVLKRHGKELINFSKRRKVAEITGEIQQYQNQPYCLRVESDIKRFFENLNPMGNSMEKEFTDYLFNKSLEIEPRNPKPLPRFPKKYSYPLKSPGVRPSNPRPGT
pKd: −log10 of the molar value.
pKd for assorted compounds
measuredMetric: pKd

{"columns": ["compound", "system", "measuredMetric", "measuredValue"],
 "data": [
  ["COc1cc2c(N[C@H](C)c3cc(N)cc(C(F)(F)F)c3)ncnn2c1", "SOS1 catalytic domain (residues 564-1049) (Homo sapiens, UniProt Q07889)", "pKd", "< 6.40"],
  ["COc1ncccc1-c1cc2c(N[C@H](C)c3cc(N)cc(C(F)(F)F)c3)nc(C)nn2c1", "SOS1 catalytic domain (residues 564-1049) (Homo sapiens, UniProt Q07889)", "pKd", "< 6.40"],
  ["C[C@@H](Nc1ncnc2sc(C(=O)N3CCOCC3)nc12)c1cc(N)cc(C(F)(F)F)c1", "SOS1 catalytic domain (residues 564-1049) (Homo sapiens, UniProt Q07889)", "pKd", "≥ 6.40"],
  ["Cc1cn2nc(C(=O)N3CC4CC3CN4C)cc2c(N[C@H](C)c2cc(N)cc(C(F)(F)F)c2)n1 (stereo partly shown)", "SOS1 catalytic domain (residues 564-1049) (Homo sapiens, UniProt Q07889)", "pKd", "≥ 6.40"],
  ["C[C@@H](Nc1nc(Cl)cc2nc(C(=O)N3CCOCC3)cn12)c1cccc(C(F)(F)CO)c1", "SOS1 catalytic domain (residues 564-1049) (Homo sapiens, UniProt Q07889)", "pKd", "≥ 6.40"],
  ["C[C@@H](Nc1nc(Cl)nn2cc(C(=O)N3CC4(COC4)C3)cc12)c1cccc(C(F)F)c1F", "SOS1 catalytic domain (residues 564-1049) (Homo sapiens, UniProt Q07889)", "pKd", "≥ 6.40"],
  ["Cc1nc(N[C@H](C)c2cc(N)cc(C(F)(F)F)c2)c2cc(-c3ccnc(N4CCOCC4)c3)cn2n1", "SOS1 catalytic domain (residues 564-1049) (Homo sapiens, UniProt Q07889)", "pKd", "≥ 6.40"],
  ["CC(=O)N1CCN(c2cc3c(N[C@H](C)c4cc(N)cc(C(F)(F)F)c4)ncnn3c2)CC1", "SOS1 catalytic domain (residues 564-1049) (Homo sapiens, UniProt Q07889)", "pKd", "< 6.40"],
  ["Cc1cn2nc(C(=O)N3CCN4CCC4C3)cc2c(N[C@H](C)c2cc(N)cc(C(F)(F)F)c2)n1 (stereo partly shown)", "SOS1 catalytic domain (residues 564-1049) (Homo sapiens, UniProt Q07889)", "pKd", "≥ 6.40"],
  ["Cc1cn2nc(C(=O)N3CCOCC3)cc2c(N[C@H](C)c2cc(N)cc(C(F)(F)F)c2)n1", "SOS1 catalytic domain (residues 564-1049) (Homo sapiens, UniProt Q07889)", "pKd", "< 6.40"],
  ["C[C@@H](Nc1cc(Cl)nc2nc(C(=O)N3CCOCC3)cn12)c1cc(N)cc(C(F)(F)F)c1", "SOS1 catalytic domain (residues 564-1049) (Homo sapiens, UniProt Q07889)", "pKd", "< 6.40"],
  ["Cc1nc(N[C@H](C)c2cc(N)cc(C(F)(F)F)c2)c2cc(C(=O)N3CCOCC3)cn2n1", "SOS1 catalytic domain (residues 564-1049) (Homo sapiens, UniProt Q07889)", "pKd", "≥ 6.40"],
  ["Cc1cn2nc(C(=O)N3CCN(C4COC4)CC3)cc2c(N[C@H](C)c2cc(N)cc(C(F)(F)F)c2)n1", "SOS1 catalytic domain (residues 564-1049) (Homo sapiens, UniProt Q07889)", "pKd", "≥ 6.40"],
  ["CNCc1ccccc1-c1ccc(C(C)Nc2nc(C)nn3cc(C4=CCNCC4)cc23)s1 (stereo not shown)", "SOS1 catalytic domain (residues 564-1049) (Homo sapiens, UniProt Q07889)", "pKd", "≥ 6.40"],
  ["C[C@@H](Nc1nc(Cl)nn2cc(C(=O)N3CC4(CN(C)C4)C3)cc12)c1cccc(C(F)F)c1F", "SOS1 catalytic domain (residues 564-1049) (Homo sapiens, UniProt Q07889)", "pKd", "≥ 6.40"],
  ["C[C@@H](Nc1ncnc2sc(C(=O)N3CCOCC3)cc12)c1cccc(C(F)(F)CO)c1", "SOS1 catalytic domain (residues 564-1049) (Homo sapiens, UniProt Q07889)", "pKd", "≥ 6.40"]
]}

====

# system: SOS1 nucleotide exchange of KRAS (catalytic domain of SOS1, residues 564-1049; wild-type KRAS) (Homo sapiens, UniProt Q07889)
# Construct: tagless catalytic domain of SOS1 (residues 564-1049)
# Sequence (Q07889 564-1049): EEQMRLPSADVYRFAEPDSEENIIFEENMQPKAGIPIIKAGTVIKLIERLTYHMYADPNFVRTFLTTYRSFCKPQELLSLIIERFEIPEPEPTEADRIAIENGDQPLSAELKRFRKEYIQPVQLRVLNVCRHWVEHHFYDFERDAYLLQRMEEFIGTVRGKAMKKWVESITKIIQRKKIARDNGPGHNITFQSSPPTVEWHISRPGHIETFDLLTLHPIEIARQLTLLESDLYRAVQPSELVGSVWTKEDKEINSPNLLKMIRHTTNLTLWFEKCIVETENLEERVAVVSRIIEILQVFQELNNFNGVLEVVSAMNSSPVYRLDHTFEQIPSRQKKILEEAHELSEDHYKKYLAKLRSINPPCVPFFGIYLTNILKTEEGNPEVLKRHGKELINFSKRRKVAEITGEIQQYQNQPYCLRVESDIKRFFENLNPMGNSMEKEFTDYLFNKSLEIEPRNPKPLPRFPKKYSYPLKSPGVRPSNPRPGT
# runDescription: Mode of Action Assay: Inhibition of SOS1 Nucleotide Exchange Activity (TR-FRET)
# recordedConditions: TR-FRET signal
pIC50: −log10 of the molar value.
measuredMetric: pIC50

{"columns": ["compound", "measuredValue"],
 "data": [
  ["C[C@@H](Nc1ncnc2sc(C(=O)N3CCOCC3)cc12)c1cc(N)cc(C(F)(F)F)c1 [Example 65]", "> 6.00"],
  ["C[C@@H](Nc1ncnn2cc(C(=O)N3CCOCC3)cc12)c1cc(N)cc(C(F)(F)F)c1 [Example 50]", "> 6.00"],
  ["C[C@@H](Nc1nc(Cl)nn2cc(C(=O)N3CC4(CN(C)C4)C3)cc12)c1cccc(C(F)(F)F)c1 [Example 97]", "> 6.00"],
  ["C[C@@H](Nc1nccn2nc(C3=CCNCC3)nc12)c1cc(N)cc(C(F)(F)F)c1 [Example 53]", "< 6.00"]
]}

====

System: SOS1 catalytic domain (residues 564-1049) (Homo sapiens) | Read-out: Kd

{"columns": ["molecule", "Kd"],
 "data": [
  ["C[C@@H](Nc1ncnn2cc(C(=O)N3CCOCC3)cc12)c1cc(N)cc(C(F)(F)F)c1 [Example 50]", "> 400 nM"],
  ["COc1cc2c(N[C@H](C)c3cc(N)cc(C(F)(F)F)c3)nc(C)nn2c1 [Example 30]", "> 400 nM"],
  ["CC(=O)N1CCN(c2cc3c(N[C@H](C)c4cccc(C(F)(F)F)c4)ncnn3c2)CC1 [Example 45]", "≤ 400 nM"],
  ["C[C@@H](Nc1nccc2nc(C(=O)N3CCN(C4COC4)CC3)cn12)c1cccc(C(F)F)c1F [Example 87]", "≤ 400 nM"],
  ["Cc1nc(N[C@H](C)c2cc(N)cc(C(F)(F)F)c2)c2cc(C3(O)CC(O)C3)cn2n1 (some centres unmarked) [Example 35]", "≤ 400 nM"],
  ["C[C@@H](Nc1nc(Cl)cn2cc(C(=O)N3CCOCC3)nc12)c1cc(N)cc(C(F)(F)F)c1 [Example 29]", "> 400 nM"],
  ["C[C@@H](Nc1ncnn2cc(C(=O)N3CCN(C)CC3)cc12)c1cccc(C(F)F)c1F [Example 69]", "≤ 400 nM"],
  ["Cc1nc(N[C@H](C)c2cc(N)cc(C(F)(F)F)c2)c2cc(C(=O)N3CC(O)C3)cn2n1 [Example 33]", "> 400 nM"]
]}
